experimental-system: AKR1B10 (Homo sapiens)
Sequence (O60218 whole entry, species assumed): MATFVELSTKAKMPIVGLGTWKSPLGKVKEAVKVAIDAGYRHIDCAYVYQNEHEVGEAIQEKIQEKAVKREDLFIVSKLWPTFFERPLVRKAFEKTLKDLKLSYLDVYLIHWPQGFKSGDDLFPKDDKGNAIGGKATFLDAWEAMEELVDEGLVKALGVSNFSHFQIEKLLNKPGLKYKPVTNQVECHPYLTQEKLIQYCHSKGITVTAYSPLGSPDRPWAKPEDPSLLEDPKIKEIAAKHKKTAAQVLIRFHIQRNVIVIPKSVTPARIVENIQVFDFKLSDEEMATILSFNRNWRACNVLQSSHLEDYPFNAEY
assay-details: Inhibition of aldo-keto reductase AKR1B10
Format: biochemical
assay-context: meaning of 'does not interact per se'

# molecule, IC50
measured = [
    ("O=C(O)Cn1c2ccccc2c2nnc(SSc3nnc4c5ccccc5n(CC(=O)O)c4n3)nc21 [Disulfide of formula I]", "> 100 µM"),
]

----------
experimental-system: AKR1B1 (Homo sapiens, UniProt P15121)
measurement-type: IC50

# compound, experimental-system, measurement-type, readout-value
rows = [
    ("O=C(O)Cn1c2ccccc2c2nnc(SSc3nnc4c5ccccc5n(CC(=O)O)c4n3)nc21 [Disulfide of formula I]", "AKR1B1 (Homo sapiens, UniProt P15121)", "IC50", "> 100 µM"),
]
